The reported measurements were obtained from patent US20250011363A1.

- System Tested: acetylcholine receptor
- Measurement Notes: SPR, AchR immobilised on CM5 chip, peptide 10 uM
Quantity Kind: Binding affinity (RU)

Task: What measured Binding affinity (RU) goes with RDWIRR [6mer-2-671] ?
Result: 27

(a) RRETVK [6mer-1-1059]
(b) RTTMRK [6mer-2-652]
Task: Could you determine which record has the numerically smaller Binding affinity (RU)? Candidates: a and b Returns: label corresponding to the selected item.
Result: b
(b: 16 RU, a: 39 RU)
